Target: UniProt P08172
Experiment: Binding affinity at human cloned acetylcholine receptor M2 in CHO cells.
Test Readout: Ki (nM)

1. CCOC(=O)N1CCC(N2CCC(C3(c4ccc(S(=O)(=O)c5ccc(OC)cc5)cc4)SCCCS3)CC2)CC1
2. CCCS(=O)(=O)N1CCC(N2CCC(C3(c4ccc(S(=O)(=O)c5ccc6c(c5)OCO6)cc4)O[C@H](C)[C@@H](C)O3)CC2)CC1
3. CCCS(=O)(=O)N1CCC(N2CCC(C3(c4ccc([S+]([O-])c5ccc6c(c5)OCO6)cc4)SCCS3)CC2)CC1 (stereo not drawn)
Query string: # rank_down: sort by Ki, max first To answer, write out the labels according to the requested order.
Result string: 1, 2, 3

====

Target: Muscarinic acetylcholine receptors; M1 & M2 (Homo sapiens) (UniProt P11229+P08172)
Experiment: Selectivity ratio for M1 muscarinic receptor compared to M2 muscarinic receptor.
Format: protein assay
Test Readout: Ratio

Examples with answers:
[
  {
    "Molecule": "CCCS(=O)(=O)N1CCC(N2CCC(C(=O)c3ccc([S+]([O-])c4ccc5c(c4)OCO5)cc3)CC2)CC1 (stereo not drawn)",
    "Ratio": 4.6
  },
  {
    "Molecule": "CCOC(=O)N1CCC(N2CCC(C3(c4ccc(S(=O)(=O)c5ccc6c(c5)OCO6)cc4)O[C@H](C)[C@@H](C)O3)CC2)CC1",
    "Ratio": 21.7
  },
  {
    "Molecule": "CCCS(=O)(=O)N1CCC(N2CCC(C3(c4ccc(S(=O)(=O)c5ccc6c(c5)OCO6)cc4)OCCO3)CC2)CC1",
    "Ratio": 102
  }
]

A. CCOC(=O)N1CCC(N2CCC(C3(c4ccc(S(=O)(=O)c5ccc6c(c5)OCO6)cc4)OCCO3)CC2)CC1
B. CCCS(=O)(=O)N1CCC(N2CCC(C3(c4ccc(S(=O)(=O)c5ccc6c(c5)OCO6)cc4)CCCO3)CC2)CC1 (stereo not drawn)
Query string: Which record shows the lower Ratio: the first, A , or the second, B ? Indicate your choice by writing its label.
Result string: B

1. CCCS(=O)(=O)N1CCC(N2CCC(C3(c4ccc([S+]([O-])c5ccc6c(c5)OCO6)cc4)CCCO3)CC2)CC1 (stereo not drawn)
2. CCCS(=O)(=O)N1CCC(N2CCC(C3(c4ccc(S(=O)(=O)c5ccc6c(c5)OCO6)cc4)SCCS3)CC2)CC1
Query string: Lower value of Ratio belongs to which: 1 or 2 ? Which one? Tell me its label.
Result string: 1
(1: 0.49, 2: 62.6)

====

Target: Muscarinic acetylcholine receptors; M2 & M3 (Homo sapiens) (UniProt P20309+P08172)
Experiment: Selectivity ratio for M3 muscarinic receptor compared to M2 muscarinic receptor.
Format: protein assay
Test Readout: Ratio

[
  {
    "Compound": "C=C(c1ccc(S(=O)(=O)c2ccc(OC)cc2)cc1)C1CCN(C2CCN(C(=O)OCC)CC2)CC1",
    "Test Readout": "Ratio",
    "Recorded Result": 21.9
  }
]

1. CCOC(=O)N1CCC(N2CCC(C3(c4ccc(S(=O)(=O)c5ccc(OC)cc5)cc4)OCCO3)CC2)CC1
2. CCCS(=O)(=O)N1CCC(N2CCC(C3(c4ccc(S(=O)(=O)c5ccc6c(c5)OCO6)cc4)SCCS3)CC2)CC1
3. CCCS(=O)(=O)N1CCC(N2CCC(C3(c4ccc([S+]([O-])c5ccc6c(c5)OCO6)cc4)O[C@H](C)[C@@H](C)O3)CC2)CC1 (some centres undefined)
4. CCCS(=O)(=O)N1CCC(N2CCC(C(=O)c3ccc(S(=O)(=O)c4ccc5c(c4)OCO5)cc3)CC2)CC1
Query string: Place the items in sequence of falling Ratio. Put the labels in the order asked and list them.
Result string: 4, 2, 3, 1

====

Target: Muscarinic acetylcholine receptor M2 (Homo sapiens)
Sequence (P08172 whole entry): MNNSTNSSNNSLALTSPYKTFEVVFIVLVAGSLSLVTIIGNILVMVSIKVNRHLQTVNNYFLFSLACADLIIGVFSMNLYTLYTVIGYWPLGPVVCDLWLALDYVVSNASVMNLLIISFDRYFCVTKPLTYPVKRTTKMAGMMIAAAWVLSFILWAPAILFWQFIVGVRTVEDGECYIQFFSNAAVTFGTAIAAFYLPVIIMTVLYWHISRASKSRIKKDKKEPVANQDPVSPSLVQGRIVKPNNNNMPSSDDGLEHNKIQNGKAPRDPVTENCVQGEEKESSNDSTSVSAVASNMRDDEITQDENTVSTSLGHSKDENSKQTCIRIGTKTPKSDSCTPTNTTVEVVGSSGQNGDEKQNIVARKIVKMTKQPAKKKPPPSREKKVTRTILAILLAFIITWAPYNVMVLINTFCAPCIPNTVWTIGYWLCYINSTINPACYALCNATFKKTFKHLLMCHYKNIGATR
Experiment: Binding affinity at human cloned acetylcholine receptor M2 in CHO cells.
Test Readout: Ki (nM)

[
  {
    "Compound": "CCOC(=O)N1CCC(N2CCC(C(=O)c3ccc(S(=O)(=O)c4ccc5c(c4)OCO5)cc3)CC2)CC1",
    "Measurement Units": "nM",
    "Ki": 0.13
  },
  {
    "Compound": "CCOC(=O)N1CCC(N2CCC(C3(c4ccc(S(=O)(=O)c5ccc6c(c5)OCO6)cc4)O[C@@H](C)[C@H](C)O3)CC2)CC1",
    "Measurement Units": "nM",
    "Ki": 1.82
  }
]

I. CCCS(=O)(=O)N1CCC(N2CCC(C3(c4ccc(S(=O)(=O)c5ccc6c(c5)OCO6)cc4)CCCO3)CC2)CC1 (centres undefined)
II. CCOC(=O)N1CCC(N2CCC(C3(c4ccc(S(=O)(=O)c5ccc(OC)cc5)cc4)SCCS3)CC2)CC1
Query string: Between the entries labeled I and II , whose measured Ki is lower? In your reply, give the label of the chosen option.
Result string: II
(II: 0.11 nM, I: 5.07 nM)

====

Target: Muscarinic acetylcholine receptors; M2 & M3 (Homo sapiens) (UniProt P20309+P08172)
Experiment: Selectivity ratio for M3 muscarinic receptor compared to M2 muscarinic receptor.
Type: protein assay
Test Readout: Ratio

[
  {
    "Molecule": "CCOC(=O)N1CCC(N2CCC(C3(c4ccc(S(=O)(=O)c5ccc6c(c5)OCO6)cc4)O[C@H](C)[C@@H](C)O3)CC2)CC1",
    "Ratio": 46
  }
]

A. CCCS(=O)(=O)N1CCC(N2CCC(C3(c4ccc(S(=O)(=O)c5ccc6c(c5)OCO6)cc4)OCCO3)CC2)CC1
B. CCOC(=O)N1CCC(N2CCC(C3(c4ccc(S(=O)(=O)c5ccc(OC)cc5)cc4)SCCCS3)CC2)CC1
C. CCCS(=O)(=O)N1CCC(N2CCC(C3(c4ccc([S+]([O-])c5ccc6c(c5)OCO6)cc4)OCCO3)CC2)CC1 (centres undefined)
Query string: Rank the 3 molecules: largest Ratio first, smallest last. Kindly provide the labels arranged according to the requested ordering.
Result string: A, C, B
